biological target: Monoacylglycerol O-acyltransferase 2 (MGAT2) (Mus musculus)
Sequence (Q80W94 whole entry): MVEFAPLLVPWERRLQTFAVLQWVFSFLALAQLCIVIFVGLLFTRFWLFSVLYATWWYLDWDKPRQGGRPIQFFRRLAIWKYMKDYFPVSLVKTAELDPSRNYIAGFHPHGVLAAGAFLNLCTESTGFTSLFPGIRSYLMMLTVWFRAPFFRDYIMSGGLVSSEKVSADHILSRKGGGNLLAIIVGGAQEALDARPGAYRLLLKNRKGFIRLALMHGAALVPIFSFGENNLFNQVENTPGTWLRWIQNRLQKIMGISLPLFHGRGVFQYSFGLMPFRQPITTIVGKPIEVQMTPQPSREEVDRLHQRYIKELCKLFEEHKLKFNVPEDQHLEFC
quantity_name: IC50 (nM)
Give bare numbers, in nM.

Exercise: Look at this compound and give its reported IC50. Cn1nc(C(F)(F)F)cc1-c1cnc(N2CCc3cc(S(=O)(=O)Nc4c(F)cc(Cl)cc4F)cc(N4CCCC4=O)c32)nc1 [compA, compound A]
Key: 2.4

* * *

target: Monoacylglycerol O-acyltransferase 2 (MGAT2) (Homo sapiens)
Sequence (Q3SYC2 whole entry): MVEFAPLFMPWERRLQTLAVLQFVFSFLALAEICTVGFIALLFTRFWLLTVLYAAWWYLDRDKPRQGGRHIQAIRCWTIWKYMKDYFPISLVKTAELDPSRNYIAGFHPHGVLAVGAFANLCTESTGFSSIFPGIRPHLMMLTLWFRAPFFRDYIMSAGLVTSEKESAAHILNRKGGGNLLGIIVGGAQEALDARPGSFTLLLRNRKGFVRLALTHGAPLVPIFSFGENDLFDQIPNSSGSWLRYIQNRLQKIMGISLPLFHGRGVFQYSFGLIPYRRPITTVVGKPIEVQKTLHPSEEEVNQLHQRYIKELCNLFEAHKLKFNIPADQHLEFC
quantity_name: IC50 (nM)
Numbers only, in nM.

Exercise: Look at this compound and give its reported IC50. Cn1nc(C(F)(F)F)cc1-c1cnc(N2CCc3cc(S(=O)(=O)Nc4c(F)cc(Cl)cc4F)cc(N4CCCC4=O)c32)nc1
Key: 7.8

Reference source: paper PMC4777574
